The origin of these recorded values is patent US20050261264A1.

experiment: Miscibility with solvents, visual evaluation at 5 wt %; assay type: physicochemical; parameters: key: ⊚: dissolves at room temperature; ◯: dissolves when heated for 5 minutes at 40° C.; Δ: dissolves under heating, but cooling precipitates crystals; X: does not dissolve; conditions: complex added at 5 wt %

COMPOUND: O=C(C=C([O-])C(F)(F)F)C(F)(F)F.O=C(C=C([O-])C(F)(F)F)C(F)(F)F.O=C(C=C([O-])C(F)(F)F)C(F)(F)F.[Nd+3] [Nd(HFA)3, reference compound]
Miscibility, Acetone: ⊚

COMPOUND: O=S(=O)([N-]S(=O)(=O)C(F)(F)F)C(F)(F)F.O=S(=O)([N-]S(=O)(=O)C(F)(F)F)C(F)(F)F.O=S(=O)([N-]S(=O)(=O)C(F)(F)F)C(F)(F)F.O=S(c1ccccc1)c1ccccc1.O=S(c1ccccc1)c1ccccc1.O=S(c1ccccc1)c1ccccc1.O=S(c1ccccc1)c1ccccc1.O=S(c1ccccc1)c1ccccc1.O=S(c1ccccc1)c1ccccc1.O=S(c1ccccc1)c1ccccc1.O=S(c1ccccc1)c1ccccc1.[Nd+3]
Miscibility, Acetone: ⊚

COMPOUND: O=C(C=C([O-])C(F)(F)F)C(F)(F)F.O=C(C=C([O-])C(F)(F)F)C(F)(F)F.O=C(C=C([O-])C(F)(F)F)C(F)(F)F.O=P(c1ccccc1)(c1ccccc1)c1ccccc1.O=P(c1ccccc1)(c1ccccc1)c1ccccc1.[Nd+3] [Nd(HFA)3(TPPO)2, reference compound]
Miscibility, Acetone: ⊚
